Ref: patent US10093630B2

# inhibition at 1 µM annotations
# Tested target: PLA2G7 (Mus musculus, UniProt Q60963)
# Construct: Proteomes (mouse brain membrane fraction or cell lysates); from tissue; host or cells: mouse brain membrane fraction (or cell lysates, not specified)
# Sequence (Q60963 22-440): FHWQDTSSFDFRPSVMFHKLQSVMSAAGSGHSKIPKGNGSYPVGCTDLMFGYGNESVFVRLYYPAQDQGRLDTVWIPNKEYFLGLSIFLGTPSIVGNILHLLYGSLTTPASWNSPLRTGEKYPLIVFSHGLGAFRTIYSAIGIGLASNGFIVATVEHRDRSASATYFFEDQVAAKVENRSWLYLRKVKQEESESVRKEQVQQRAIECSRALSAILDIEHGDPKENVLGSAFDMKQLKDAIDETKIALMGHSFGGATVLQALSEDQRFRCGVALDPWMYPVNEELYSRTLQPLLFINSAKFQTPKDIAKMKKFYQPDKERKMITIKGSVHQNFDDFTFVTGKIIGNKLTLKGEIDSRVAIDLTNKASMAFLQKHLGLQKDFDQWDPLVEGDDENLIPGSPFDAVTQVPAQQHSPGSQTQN
# Experiment description: In vitro competitive activity-based protein profiling (gel-based, FP-Rh or HT-01 probe)
# Assay type: biochemical
# Cond: 1 μM inhibitor; read-out: % Inhibition at 1 μM, D = PLA2G7
# Protocol: In Vitro Competitive Activity-Based Protein Profiling. Proteomes (mouse brain membrane fraction or cell lysates) (50 μL, 1.0 mg/mL total protein concentration) were preincubated with varying concentrations of inhibitors at 37° C. […] Following gel imaging, serine hydrolase activity was determined by measuring fluorescent intensity of gel bands corresponding to MAGL, ABHD6, FAAH, and PLA2G7 using ImageJ 1.43u software.

Here's what some known entries look like.
Molecular string	Measured endpoint	Assay value
O=C(c1cnn(C(=O)N2CCN(Cc3ccccn3)CC2)c1)N1CCOCC1	inhibition at 1 µM	< 25%
CC(C)(C)OC(=O)N1CCCN(C(=O)n2cc(C#N)cn2)CC1	inhibition at 1 µM	> 75%
COc1ccc(N2CCN(C(=O)n3cc(C(F)(F)F)cn3)CC2)cc1	inhibition at 1 µM	> 75%
O=C(N1CCN(c2cccc(Cl)c2)CC1)n1cc(C(F)(F)F)cn1	inhibition at 1 µM	> 75%

inhibition at 1 µM reading for Cc1cc(-c2ccccc2)ccc1CN1CCN(C(=O)n2cc(C(=O)N3CCOCC3)cn2)CC1 : < 25%

// field: inhibition at 1 µM; key: Cc1cnn(C(=O)Nc2ccc3ccccc3c2)c1 ; value = < 25%

# inhibition at 1 µM (compound: COC(=O)c1cnn(C(=O)N2CCN(Cc3ccc4ccccc4c3)CC2)c1 ) is > 75%

Entry O=C(N1CCCCC1)n1cccn1 ; inhibition at 1 µM = < 25%

// inhibition at 1 µM value for O=C(c1ccccc1)N1CCCN(C(=O)n2cc(C(F)(F)F)cn2)CC1 : > 75%

====

# Tested target: FAAH (Mus musculus, UniProt O08914)
# Construct: Proteomes (mouse brain membrane fraction or cell lysates); from tissue; host or cells: mouse brain membrane fraction (or cell lysates, not specified)
# Sequence (O08914 whole entry): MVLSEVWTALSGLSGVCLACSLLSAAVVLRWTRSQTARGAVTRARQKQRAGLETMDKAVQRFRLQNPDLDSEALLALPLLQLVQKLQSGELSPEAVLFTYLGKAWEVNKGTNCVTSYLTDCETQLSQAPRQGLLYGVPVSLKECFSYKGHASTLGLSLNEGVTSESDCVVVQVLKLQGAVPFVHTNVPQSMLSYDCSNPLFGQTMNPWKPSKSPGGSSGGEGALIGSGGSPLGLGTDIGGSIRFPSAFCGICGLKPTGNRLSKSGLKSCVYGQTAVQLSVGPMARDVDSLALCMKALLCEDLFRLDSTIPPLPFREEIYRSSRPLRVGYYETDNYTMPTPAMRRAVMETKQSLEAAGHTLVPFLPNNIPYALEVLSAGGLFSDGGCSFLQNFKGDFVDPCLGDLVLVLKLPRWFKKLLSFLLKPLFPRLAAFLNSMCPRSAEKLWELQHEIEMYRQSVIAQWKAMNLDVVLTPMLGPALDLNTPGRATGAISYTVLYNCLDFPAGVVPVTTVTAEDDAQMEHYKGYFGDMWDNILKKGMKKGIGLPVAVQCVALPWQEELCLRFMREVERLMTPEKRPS
# Experiment description: In vitro competitive activity-based protein profiling (gel-based, FP-Rh or HT-01 probe)
# Assay type: biochemical
# Cond: 1 μM inhibitor; gel-based competitive ABPP; read-out: % Inhibition at 1 μM, B = FAAH
Recorded inhibition at 1 µM for the following compounds

Illustrative cases are given below, each with its answer.
Molecular string	Tested target	inhibition at 1 µM
CNC(=O)c1cnn(C(=O)N2CCN(Cc3cccc(Oc4ccccc4)c3)CC2)c1	FAAH (Mus musculus, UniProt O08914)	> 75%
CCN(Cc1ccc(Cl)cc1)C(=O)n1cc(C#N)cn1	FAAH (Mus musculus, UniProt O08914)	> 75%

Form field inhibition at 1 µM, entry CCN(Cc1cccc(OC)c1)C(=O)n1cc(C)cn1 : < 25%

response.value for O=C(N1CCN(Cc2ccccc2F)CC1)n1cc(C(F)(F)F)cn1 (field: inhibition at 1 µM) = > 75%

====

# Tested target: ABHD6 (Mus musculus)
# Construct: Proteomes (mouse brain membrane fraction or cell lysates); from tissue; host or cells: mouse brain membrane fraction (or cell lysates, not specified)
# Sequence (Q8R2Y0 whole entry): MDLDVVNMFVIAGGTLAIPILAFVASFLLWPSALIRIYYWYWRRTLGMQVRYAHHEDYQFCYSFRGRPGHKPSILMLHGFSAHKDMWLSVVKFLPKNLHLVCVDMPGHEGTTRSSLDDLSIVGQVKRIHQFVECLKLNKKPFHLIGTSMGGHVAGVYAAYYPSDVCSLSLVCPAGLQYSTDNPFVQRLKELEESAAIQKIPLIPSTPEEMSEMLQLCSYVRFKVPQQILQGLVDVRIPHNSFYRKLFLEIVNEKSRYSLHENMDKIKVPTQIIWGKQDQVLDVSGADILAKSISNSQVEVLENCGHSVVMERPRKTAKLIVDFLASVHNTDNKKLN
# Experiment description: In vitro competitive activity-based protein profiling (gel-based, FP-Rh or HT-01 probe)
# Assay type: biochemical
# Cond: mouse brain membrane fraction or cell lysates, 30 min preincubation at 37° C.; read-out: Mouse (IC50 value, nM) ABHD6
Measured endpoint: IC50

Compound	Tested target	IC50
O=C(N1CCN(Cc2cccc(C(F)(F)F)c2)CC1)n1cc(C(F)(F)F)cn1 [Example 272]	ABHD6 (Mus musculus)	< 100 nM
O=C(N1CCN(Cc2ccc(C(F)(F)F)cc2)CC1)n1cc(Cl)cn1 [Example 213]	ABHD6 (Mus musculus)	< 100 nM
O=C(N1CCN(Cc2ccc(Cl)cc2N2CCC3(CCOCC3)C2)CC1)n1cc(Cl)cn1 [Example 102]	ABHD6 (Mus musculus)	< 100 nM

For this compound ( O=C(N1CCN(Cc2ccccc2Cl)CC1)n1cc(Cl)cn1 [Example 224] ), measured IC50 is 100 to 1000 nM

// Cc1cc(-c2ccccc2)ccc1CN1CCN(C(=O)n2cc(C(=O)N3CCCCC3)cn2)CC1 [Example 76] : IC50 value = 100 to 1000 nM

// field: IC50; key: O=C(N1CCN(Cc2nccs2)CC1)n1cc(-c2ccccc2)cn1 [Example 63] ; value = 100 to 1000 nM

Per the record, O=C(N1CCN(c2ccc(N3CCCC3)cc2)CC1)n1cc(C(F)(F)F)cn1 [Example 241] has IC50 of < 100 nM

For CCN(Cc1cccc(Cl)c1)C(=O)n1cc(C(F)(F)F)cn1 [Example 244] the compound record lists IC50 as > 1000 nM

CCN(Cc1ccc(Cl)cc1)C(=O)n1cc(Cl)cn1 [Example 131] yielded IC50 of > 1000 nM
